Reported values of IC50 for individual entries
# system_name: Protein farnesyltransferase/geranylgeranyltransferase type-1 subunit alpha (Saccharomyces cerevisiae S288c, UniProt P29703)
# Sequence (P29703 whole entry): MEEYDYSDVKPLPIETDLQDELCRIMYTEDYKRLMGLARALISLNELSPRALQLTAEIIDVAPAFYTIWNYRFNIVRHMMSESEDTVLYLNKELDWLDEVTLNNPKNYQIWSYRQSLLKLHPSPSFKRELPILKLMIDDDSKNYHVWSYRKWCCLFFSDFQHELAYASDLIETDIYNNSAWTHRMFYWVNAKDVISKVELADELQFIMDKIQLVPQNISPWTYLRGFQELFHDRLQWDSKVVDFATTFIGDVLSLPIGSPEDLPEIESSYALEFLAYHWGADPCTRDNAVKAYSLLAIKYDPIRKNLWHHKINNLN
# assay_protocol: Inhibition of Saccharomyces cerevisiae protein farnesyltransferase assessed as farnesylation of N-dansyl-GCVIA

* C/C(=C\COP(=O)(O)OP(=O)(O)O)COCc1cccc(C(=O)c2ccccc2)c1 | 3.4 µM
* CC(C)=CCC/C(C)=C/CC/C(C)=C/COP(=O)(O)OP(=O)(O)Cc1ccc(C(=O)c2ccccc2)cc1 | 3 µM
* C/C(=C\COP(=O)(O)OP(=O)(O)O)CC/C=C(\C)COC(=O)[C-]([N+]#N)C(F)(F)F | 0.72 µM

Moving on to another molecule below.
Data request: Query (molecule): CC(C)=CCC/C(C)=C/CC/C(C)=C/COP(=O)(O)OP(=O)(O)Cc1cccc(C(=O)c2ccccc2)c1 ; field requested: IC50
Data returned: 5.8 µM
